System: OVCAR-8 ovarian
Experiment: NCI tumour cell line growth inhibition, 48 h
result.type: TGI

Ask: Report TGI for `CC(C)(C)c1ccc2c(c1)S(=O)(=O)Nc1ccc(Cl)cc1NS(=O)(=O)c1cc(C(C)(C)C)ccc1OCCOCCOCCO2` please.
Reply: > 100 µM

Ask: Queued: `CCOC(=O)c1c(-c2ccccc2)c(-c2ccccc2)cn1C`
Reply: > 10 µM

Ask: Queued: `COc1ccc(-c2cnnn2-c2nonc2-n2cccc2)cc1`
Reply: 18.9 µM

Ask: Queued: `O=c1[nH]cnc2c1ncn2[C@@H]1C[C@@H]1CO`
Reply: > 100 µM

Ask: Queued: `CCNC(=O)/C(=C/c1ccc(OC)cc1)c1cc(OC)c(OC)c(OC)c1`
Reply: > 100 µM

Ask: Queued: O=C(CNc1c(Cl)cccc1Cl)NC1C=Cc2ccc(S(=O)(=O)Nc3c(Cl)cccc3Cl)cc2C1=O (stereo not given)
Reply: > 100 µM

Ask: Queued: `Cc1cc(N/N=C/c2ccccn2)nc2ccccc12`
Reply: 16.6 µM

Ask: Queued: `COc1ccc(C(=O)c2cc(OC)c(OC)c(OC)c2)cc1OC`
Reply: > 100 µM

Ask: Queued: COC(=O)/C(=N/O)C(C(=O)C=C(C)C)C(=O)C(=O)Nc1nc2ccc([N+](=O)[O-])cc2s1 (stereo not given)
Reply: > 100 µM

Ask: Queued: `Nc1c(-c2ccccc2-c2c(N)[n+]([O-])c3ccccc3[n+]2[O-])[n+]([O-])c2ccccc2[n+]1[O-]`
Reply: 81.5 µM
